Some compounds, each annotated with its measured nuclei count.
Test: reduction of polyQ htt aggregates in cells – imaging, exon1htt(103Q)mCFP cells, high-content imaging, primary screen (AID 483);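 also: compound exposure lasted 3 days before fixation; percent of the per-plate median nuclei count of sample wells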
Settings: exon1htt(103Q)mCFP cell line, aggregate imaging, at 2 µM; measured here: cell count, toxicity
Value expressed in %; do not type the unit.

Compound	nuclei count (%)
O=C(CCCCn1c(=O)c2ccccc2n(Cc2ccc(Cl)cc2)c1=O)NCc1ccco1	81.8
COc1ccccc1C(=O)Nc1ccc(S(=O)(=O)N2CCCC2)cc1	114
CCN(CC)c1ccc2cc(-c3nc4ccccc4[nH]3)c(=O)oc2c1	98.9
Cc1ccccc1-n1nnnc1SCC(=O)Nc1ccc(S(=O)(=O)N2CCCC2)cc1	96.4
CCc1nnc(NC(=O)c2ccc(COc3ccccc3)o2)s1	101
CC(Oc1ccccc1)C(=O)NC1CC(C)(C)NC(C)(C)C1 (stereo not drawn)	89.9

Qu. What measured nuclei count goes with Cc1cc(-n2c(C)cc(C(=O)CSc3nc4ccccc4c(=O)n3Cc3ccco3)c2C)no1 ?
Ans. 95

Qu. What does the data say about its nuclei count? Entry: Cc1ccc(S(=O)(=O)N2CCOCC(=O)NCCOCCNC(=O)COCC2)cc1
Ans. 116

Qu. I'd like to know its nuclei count. The compound in question is CCN(CC)CCCn1c(=S)[nH]c2cc(Cl)ccc2c1=O
Ans. 100

Qu. For CC1=C(C(=O)OCc2ccccc2)C(c2ccco2)n2ncnc2N1 (stereo not drawn) , what is its reported nuclei count?
Ans. 117

Qu. So what's the measured nuclei count for this one? CCOC(=O)N1CCC(Nc2ncnc3c2cnn3-c2ccc(C)cc2C)CC1
Ans. 92.6

Qu. Requested read-out: nuclei count. Entry: COc1ccc2nc(N3CCC(C)CC3)c(C#N)cc2c1
Ans. 108
